// cross-source set; read-out = IC50; system = Tyrosine-protein kinase receptor UFO (Homo sapiens, UniProt P30530)

compound=COC[C@H](C)Nc1ncc2c(-c3cnc(C)o3)cc([C@H]3CC[C@H](O)CC3)n2n1 reported="100 to 1000 nM"
compound=C[C@@H](CC#N)Nc1ncc2c(OC3CCOCC3)ncc([C@H]3CC[C@H](O)CC3)c2n1 reported="100 to 1000 nM"
compound=COC[C@H](C)Nc1ncc2c(-c3cnnc(C)c3)cc([C@H]3CC[C@H](O)CC3)n2n1 reported="100 to 1000 nM"

Lookup: Which IC50 is reported with Tyrosine-protein kinase receptor UFO (Homo sapiens, UniProt P30530) for this entry: COc1cc2c(Oc3ccc(NC(=O)c4c(C)n(C)c5ccc(OC(F)(F)F)cc5c4=O)cc3F)ncnc2cc1OCCN(C)C ?
Found: 1.9 nM

Lookup: Given the entry CC(=O)N1CCN(Cc2ccc(-c3cc([C@H]4CC[C@H](O)CC4)n4nc(N[C@@H](C)COC(F)F)ncc34)cc2)CC1 , what IC50 was observed with Tyrosine-protein kinase receptor UFO (Homo sapiens, UniProt P30530)?
Found: ≤ 100 nM

Lookup: Tell me reported IC50 for COC[C@H](C)Nc1ncc2c(-c3ccnc(N4CCc5nc(C)sc5C4)c3)cc([C@H]3CC[C@H](O)CC3)n2n1 , tested with Tyrosine-protein kinase receptor UFO (Homo sapiens, UniProt P30530).
Found: ≤ 100 nM

Lookup: Give the reported IC50 for COC[C@H](C)Nc1ncc2c(-c3ccnc(OC4COC4)c3)cc([C@H]3CC[C@H](O)CC3)n2n1 (system: Tyrosine-protein kinase receptor UFO (Homo sapiens, UniProt P30530)).
Found: ≤ 100 nM

Lookup: Reported IC50 for Tyrosine-protein kinase receptor UFO (Homo sapiens, UniProt P30530), given COC[C@H](C)Nc1ncc2c(-c3cnn(C(C)(C)C(=O)N4CCC(C)(O)C4)c3)cc([C@H]3CC[C@H](O)CC3)n2n1 (stereo partly drawn) ?
Found: ≤ 100 nM

Lookup: Missing value: IC50, Tyrosine-protein kinase receptor UFO (Homo sapiens, UniProt P30530), entry COC[C@H](C)Nc1ncc2c(-c3ccnc(Oc4cccnc4)c3)cc([C@H]3CC[C@H](O)CC3)n2n1 . Fill in?
Found: ≤ 100 nM

---

pIC50: −log10 of the molar value.
Let's look at some pIC50 data for Tyrosine-protein kinase receptor UFO (Homo sapiens) that I collected from the literature.

molecule=O=C(Nc1ccc(Oc2ccnc(NC(=O)C3CC3)c2)c(F)c1)c1c2n(n(-c3ccccc3)c1=O)CCC2 reported=7.72
molecule=COCCOc1cc2nccc(Oc3ccc(NC(=O)c4cnc(C)c(C5=CCCCC5)c4O)cc3F)c2nc1OC reported="≥ 7.00"
molecule=COC[C@H](C)Nc1ncc2c(O[C@@H]3CCNCC3(F)F)ncc([C@H]3CC[C@H](O)CC3)c2n1 reported="5.00 to 6.00"
molecule=C[C@@H](COC(F)F)Nc1ncc2c(-c3ccnc(N4CCOCC4)c3)cc([C@H]3CC[C@H](O)CC3)n2n1 reported="≥ 7.00"
molecule=C[C@@H](CN(C)C)Nc1ncc2c(-c3cnn(C4COC4)c3)cc([C@H]3CC[C@H](O)CC3)n2n1 reported="5.00 to 6.00"
molecule=COc1cc2nccc(Oc3ccc(NC(=O)c4c(C)nc(C)c(C(C)C)c4O)cc3)c2nc1OC reported="≥ 7.00"

Lookup: Hello, I am looking for reported pIC50 with Tyrosine-protein kinase receptor UFO (Homo sapiens) for Nc1ncc(-c2cnn(C3CCNCC3)c2)cc1-c1cc(-c2ccccc2)on1 . Could you help?
Found: > 6.30

Lookup: Param readout= pIC50; system= Tyrosine-protein kinase receptor UFO (Homo sapiens); entry= COCCOc1cc2nccc(Oc3cc(F)c(NC(=O)c4c(C)nc(C)c(C(N)=O)c4O)cc3F)c2nc1OC ; returns value.
Found: < 6.52

Lookup: Fill in the recorded pIC50 for this molecule, with Tyrosine-protein kinase receptor UFO (Homo sapiens) as test system: COc1cc2nccc(Oc3ccc(NC(=O)c4cc(C(C)=O)cn(-c5ccccc5)c4=O)nc3)c2cc1OC
Found: 8.82

Lookup: Hi! What's the reported pIC50 for CC(=O)Nc1cc(Oc2ccc(NC(=O)c3c4n(n(-c5ccccc5)c3=O)CCC4)cc2F)ccn1 on Tyrosine-protein kinase receptor UFO (Homo sapiens)?
Found: 7.44

Lookup: Write down the reported pIC50 of COCC(C)Nc1ncc2c(-c3ccc(C4(N5CCN(C)CC5)CC4)cc3)cc(C3CCC(O)CC3)n2n1 (stereo not drawn) , test system: Tyrosine-protein kinase receptor UFO (Homo sapiens).
Found: ≥ 7.00

Lookup: Form field - read-out: pIC50; system: Tyrosine-protein kinase receptor UFO (Homo sapiens); submitted item: COc1cc2ncnc(Oc3ccc(NC(=O)c4cn5c6c(c(N7CCC(O)CC7)c(F)cc6c4=O)CCC5C)cc3F)c2cc1OC (stereo not drawn)
Found: 7.55

---

// cross-source set; read-out = IC50; system = Tyrosine-protein kinase receptor UFO (Homo sapiens, UniProt P30530)

Consider the reported IC50 for these compounds:
compound=C[C@@H](Nc1ncc2c(OC3CCNCC3)ncc([C@H]3CC[C@H](O)CC3)c2n1)c1ccccc1 measurement_type=IC50 reported="1000 to 10000 nM"
compound=CNS(=O)(=O)N1CCC(c2cnc(OC3CCOCC3)c3cnc(N[C@@H](C)COC)nc23)CC1 measurement_type=IC50 reported="1000 to 10000 nM"
compound=COc1cc2nccc(Oc3cnc(NC(=O)c4nn(CC5CCOCC5)cc(-c5ccc(C)cc5)c4=O)nc3)c2cc1OC measurement_type=IC50 reported="4 nM"
compound=COc1cc2nccc(Oc3ccc(NC(=O)c4c(C)n(C)c(C)c(N5CCCC5)c4=O)cc3F)c2nc1OC measurement_type=IC50 reported="≤ 100 nM"
compound=COC[C@H](C)Nc1ncc2c(-c3csc(C(=O)N4CCOCC4)c3)cc([C@H]3CC[C@H](O)CC3)n2n1 measurement_type=IC50 reported="≤ 100 nM"
compound=COC[C@H](C)Nc1ncc2c(-c3ccc([C@H](C)N4CCOCC4)cc3)cc([C@H]3CC[C@H](O)CC3)n2n1 measurement_type=IC50 reported="≤ 100 nM"

Lookup: Request - read-out IC50 | tested on Tyrosine-protein kinase receptor UFO (Homo sapiens, UniProt P30530) | compound Cc1ncc([C@H]2CC[C@H](O)CC2)c2nc(N[C@@H](C)CC(F)(F)F)ncc12
Found: 100 to 1000 nM

Lookup: Give Tyrosine-protein kinase receptor UFO (Homo sapiens, UniProt P30530) IC50 for COC[C@H](C)Nc1ncc2c([C@H]3CC[C@@H](C(=O)N4CC5(COC5)C4)CC3)cc([C@H]3CC[C@H](O)CC3)n2n1
Found: 100 to 1000 nM

---

Several reports have described IC50 for Tyrosine-protein kinase receptor UFO (Homo sapiens); a selection of those results is presented here.

Past entries and their recorded results:
compound=CNc1ncc2c(n1)N1CCN=C1C(c1c(C)ccc(NC(=O)Nc3ccccc3Cl)c1F)=C2 reported="> 10000 nM"
compound=CC[C@H](C)Nc1ncc2c(C)ncc([C@H]3CC[C@H](O)CC3)c2n1 reported="≤ 100 nM"
compound=COc1cc2nccc(Oc3ccc(NC(=O)c4cn(C(C)C)nc(-c5ccc(F)cc5)c4=O)cn3)c2cc1OC reported="3 nM"
compound=COC[C@H](C)Nc1ncc2c(-c3cnn(Cc4cnc(C)cn4)c3)cc([C@H]3CC[C@H](O)CC3)n2n1 reported="≤ 100 nM"
compound=COC[C@H](C)Nc1ncc2c([C@H]3CC[C@@H](C(=O)N4CCN(C)CC4)CC3)cc([C@H]3CC[C@H](O)CC3)n2n1 reported="≤ 100 nM"

Lookup: # query: IC50 | item COC[C@H](C)Nc1ncc2c(-c3cnn(C(C)(C)C(=O)N4CC(C)(O)C4)c3)cc([C@H]3CC[C@H](O)CC3)n2n1 | system: Tyrosine-protein kinase receptor UFO (Homo sapiens)
Found: ≤ 100 nM

Lookup: Hi! What's the reported IC50 for C=C(C)c1c(C)n(C)c(C)c(C(=O)Nc2ccc(Oc3ccnc4cc(OC)c(OC)nc34)cc2)c1=O on Tyrosine-protein kinase receptor UFO (Homo sapiens)?
Found: ≤ 100 nM

Lookup: // lookup IC50 | system=Tyrosine-protein kinase receptor UFO (Homo sapiens) | key= COC[C@H](C)Nc1ncc2c(-c3cnn(C4COC4)c3)cc(-c3cccc(O)c3)n2n1
Found: 1000 to 10000 nM

Lookup: Form field: IC50 recorded for COCCOc1nc(Nc2ccc(CN3CCN(C)CC3)cc2)nc2[nH]cc(-c3ccc(OCc4cccc(C)n4)cc3F)c12 with Tyrosine-protein kinase receptor UFO (Homo sapiens) (enter value)
Found: < 30 nM

Lookup: Short answer please: IC50, Tyrosine-protein kinase receptor UFO (Homo sapiens), entry COC[C@H](C)Nc1ncc2c(-c3cnn(C(C)(C)c4nnc(C(C)C)o4)c3)cc([C@H]3CC[C@H](O)CC3)n2n1
Found: ≤ 100 nM

Lookup: Hi! What's the reported IC50 for CCC(C)Nc1ncc2c(OC3CCOCC3)ncc([C@H]3CC[C@H](O)CC3)c2n1 (some centres unmarked) on Tyrosine-protein kinase receptor UFO (Homo sapiens)?
Found: 100 to 1000 nM
